# Procedure Summary: late-stage follow-up, counter-screen for PhoP regulon inhibitor project, purified and synthesized compounds, set 5 (AID 463174)
# Assay Conditions: S. Typhi promoter-GFP counter-screen, fluorescence, 4 h; at 150 µM (top of the series)
Consider the following molecules; for each one, report its inhibition.
Lab book: enter the figure in %, no units written.

Consider the molecule `COc1cccc(NC(=O)N2CCCN(Cc3ccccc3F)C2)c1` and give its recorded inhibition.
-3.56

Input O=C1C2=C(Nc3ccccc3SC2c2cccc(Br)c2)c2ccccc21 (stereo not given) , output reported inhibition.
-12.6

Please report the measured inhibition for O=C1C2=C(Nc3ccccc3SC2c2cccnc2)c2ccccc21 (stereo not given)
-32.9

Annotate the molecule Clc1ccc(C2Sc3ccccc3N=C3c4ccccc4CC32)cc1 (stereo not given) with its measured inhibition.
-48.2

Note inhibition for the molecule shown: Cc1ccc(C2Sc3ccccc3N=C3c4ccccc4CC32)cc1 (stereo not given)
-45.3
